Tested on: CCRF-CEM leukemia
Test: NCI-60 one-dose screen, 48 h
Details: 10 µM unless noted
Compounds without any hit were thinned out: in the full panel of roughly 83,000, 20% have a hit. The source made the active and inactive calls. The calls were made as follows: active = growth percent below 10; inactive = the rest.
Output constraint: value belongs to yes (active), no (inactive)

## Task Any idea what this test logged for COc1cc(C2=C(c3cn(C)c4ccccc34)COC2=O)cc(OC)c1OC ?
## Result yes

## Task Any idea what this test logged for CCN(CC)CC[n+]1cc2cc(OC)c(OC)cc2c2ccc3cc4c(cc3c21)OCO4 ?
## Result yes

## Task Any idea what this test logged for COC(=O)CNC(=O)[C@]12CCC(C)(C)C[C@H]1C1=CC[C@@H]3[C@@]4(C)Cc5c([nH]c6ccccc56)C(C)(C)[C@@H]4CC[C@@]3(C)[C@]1(C)CC2 ?
## Result no

## Task Any idea what this test logged for Cn1ccnc1C(=O)/C=C/c1ccc(CC(=O)NC2CCCCC2)cc1 ?
## Result no
